Hello, the source for this data is patent US10961236B2, in case you need it.

Below, each of the compounds is paired with its reported pIC50 value.
# target-system: recombinant human PI3Kα (6-His(p110-p85α)) (Homo sapiens (Human), UniProt P42336)
# Sequence (P42336 whole entry): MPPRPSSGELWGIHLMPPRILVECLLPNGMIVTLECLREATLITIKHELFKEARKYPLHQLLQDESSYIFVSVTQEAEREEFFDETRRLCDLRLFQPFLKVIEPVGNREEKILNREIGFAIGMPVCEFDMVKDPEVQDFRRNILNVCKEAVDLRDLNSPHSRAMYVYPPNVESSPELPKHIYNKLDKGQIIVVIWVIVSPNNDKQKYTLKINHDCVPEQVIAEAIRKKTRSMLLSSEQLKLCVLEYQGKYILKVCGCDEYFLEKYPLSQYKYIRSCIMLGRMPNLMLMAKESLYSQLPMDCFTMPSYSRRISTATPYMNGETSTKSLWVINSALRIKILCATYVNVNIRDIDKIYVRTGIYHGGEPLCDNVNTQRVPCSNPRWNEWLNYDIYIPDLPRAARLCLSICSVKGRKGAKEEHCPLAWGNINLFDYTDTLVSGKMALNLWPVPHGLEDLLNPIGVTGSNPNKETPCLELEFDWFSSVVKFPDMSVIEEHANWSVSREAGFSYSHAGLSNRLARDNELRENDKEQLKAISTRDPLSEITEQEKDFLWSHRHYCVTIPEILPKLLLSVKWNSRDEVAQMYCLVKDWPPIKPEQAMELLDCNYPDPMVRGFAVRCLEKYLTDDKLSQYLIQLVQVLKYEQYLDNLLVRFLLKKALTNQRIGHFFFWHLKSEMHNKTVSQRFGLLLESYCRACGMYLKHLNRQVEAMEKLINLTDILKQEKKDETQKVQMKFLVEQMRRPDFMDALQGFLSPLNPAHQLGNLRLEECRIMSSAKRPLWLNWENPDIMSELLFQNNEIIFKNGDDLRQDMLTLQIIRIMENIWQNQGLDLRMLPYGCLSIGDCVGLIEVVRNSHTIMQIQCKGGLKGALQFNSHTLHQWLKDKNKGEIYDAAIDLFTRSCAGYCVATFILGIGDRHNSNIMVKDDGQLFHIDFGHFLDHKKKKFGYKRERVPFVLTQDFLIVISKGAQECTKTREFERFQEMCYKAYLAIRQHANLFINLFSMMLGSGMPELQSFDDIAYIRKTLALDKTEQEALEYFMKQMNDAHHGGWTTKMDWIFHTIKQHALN
# Sequence (P27986 whole entry partner): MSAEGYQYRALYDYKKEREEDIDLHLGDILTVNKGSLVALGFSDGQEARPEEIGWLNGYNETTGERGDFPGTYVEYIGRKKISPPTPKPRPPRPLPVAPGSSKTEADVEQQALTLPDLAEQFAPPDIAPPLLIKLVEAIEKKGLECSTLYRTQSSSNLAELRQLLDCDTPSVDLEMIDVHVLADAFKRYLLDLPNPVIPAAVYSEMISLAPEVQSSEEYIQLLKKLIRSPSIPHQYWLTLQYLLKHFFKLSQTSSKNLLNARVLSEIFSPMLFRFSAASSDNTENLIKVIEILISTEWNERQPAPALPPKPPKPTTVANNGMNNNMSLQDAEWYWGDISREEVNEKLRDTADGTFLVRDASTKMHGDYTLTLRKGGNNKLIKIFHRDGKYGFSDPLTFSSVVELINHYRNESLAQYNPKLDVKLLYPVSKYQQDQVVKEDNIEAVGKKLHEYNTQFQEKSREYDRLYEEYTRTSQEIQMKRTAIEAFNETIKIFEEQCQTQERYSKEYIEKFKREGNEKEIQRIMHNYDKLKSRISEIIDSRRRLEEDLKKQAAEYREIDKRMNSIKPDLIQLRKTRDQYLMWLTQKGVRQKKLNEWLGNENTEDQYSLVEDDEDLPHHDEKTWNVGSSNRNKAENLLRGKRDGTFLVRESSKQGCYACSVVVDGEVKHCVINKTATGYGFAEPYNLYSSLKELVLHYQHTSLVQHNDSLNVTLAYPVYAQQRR
# test-description: Enzymatic activity assay for recombinant human PI3Kα (ADP-Glo)
# condition-summary: 1.2 nM PI3Kα, 20 μM ATP, 80 μM DiC8-PIP2, ADP-Glo
# pIC50 is unitless: minus log10 of the molar concentration; print number only

# item-smiles, pIC50
rows = [
    ("CNS(=O)(=O)c1cc(-c2sc(Nc3cccc(N4CCOCC4=O)n3)nc2C)cc2c1C(=O)N([C@@H](C)C(C)(C)C)C2", 6.31),
    ("Cc1nc(Nc2cccc(N3CCNCC3=O)n2)sc1-c1cc2c(c(S(=O)(=O)NC(C)C)c1)C(=O)N([C@@H](C)C1CC1)C2", 6.87),
    ("Cc1nc(Nc2cccc(N3CCCC3=O)n2)sc1-c1cc2c(c(S(=O)(=O)NC3COC3)c1)C(=O)N([C@@H](C)C(F)(F)F)C2", 7.17),
    ("Cc1nc(Nc2cccc(N3CCOC3=O)n2)sc1-c1cc2c(c(S(C)(=O)=O)c1)C(=O)N([C@@H](C)C(F)(F)F)C2", 6.52),
    ("CNS(=O)(=O)c1cc(-c2sc(Nc3cccc(N4C(=O)CC[C@@H]4CO)n3)nc2C)cc2c1C(=O)N([C@@H](C)C1CC1)C2", 7.37),
]

Here's the next entry for you.
Incoming: Given the entry "Cc1nc(Nc2cccc(N3CCOCC3=O)n2)sc1-c1cc2c(c(S(=O)(=O)NC3COC3)c1)C(=O)N([C@@H](C)C1CC1)C2" , report its measured pIC50.
Outgoing: 7.07

---

# target-system: recombinant human PI3Kα (6-His(p110-p85α)) (Homo sapiens (Human))
# test-description: Enzymatic activity assay for recombinant human PI3Kα (ADP-Glo)
# condition-summary: 1.2 nM PI3Kα, 20 μM ATP, 80 μM DiC8-PIP2, ADP-Glo
quantity-name: IC50 (nM)
Express your answer in nM, writing the number without its unit.

Previously resolved entries follow.
# compound, target-system, endpoint-unit, IC50
measured = [
    ("CNS(=O)(=O)c1cc(-c2sc(Nc3cccc(N4CC[C@@H](O)C4=O)n3)nc2C)cc2c1C(=O)N([C@@H](C)C1CC1)C2 [Example 54]", "recombinant human PI3Kα (6-His(p110-p85α)) (Homo sapiens (Human))", "nM", 14),
    ("CNS(=O)(=O)c1cc(-c2sc(Nc3cccc(N4C(=O)CNC[C@@H]4C)n3)nc2C)cc2c1C(=O)N([C@@H](C)C1CC1)C2 [Example 49]", "recombinant human PI3Kα (6-His(p110-p85α)) (Homo sapiens (Human))", "nM", 87),
    ("CNS(=O)(=O)c1cc(-c2sc(Nc3cccc(N4CCNC4=O)n3)nc2C)cc2c1C(=O)N([C@@H](C)C(F)(F)F)C2 [Example 63]", "recombinant human PI3Kα (6-His(p110-p85α)) (Homo sapiens (Human))", "nM", 32),
    ("Cc1nc(Nc2cccc(N3CCCCC3=O)n2)sc1-c1cc2c(c(S(=O)(=O)NC3COC3)c1)C(=O)N([C@@H](C)C(F)(F)F)C2 [Example 36]", "recombinant human PI3Kα (6-His(p110-p85α)) (Homo sapiens (Human))", "nM", 50),
    ("CNS(=O)(=O)c1cc(-c2sc(Nc3cccc(N4CCNC(C)(C)C4=O)n3)nc2C)cc2c1C(=O)N([C@@H](C)C1CC1)C2 [Example 47]", "recombinant human PI3Kα (6-His(p110-p85α)) (Homo sapiens (Human))", "nM", 97),
]

Incoming: Given the entry CCN(C(=O)COC)c1cccc(Nc2nc(C)c(-c3cc4c(c(S(=O)(=O)NC)c3)C(=O)N([C@@H](C)C3CC3)C4)s2)n1 [Example 18] , report its measured IC50.
Outgoing: 25

Incoming: Quick one: Cc1nc(Nc2cccc(N3CCOCC3=O)n2)sc1-c1cc2c(c(S(=O)(=O)NC(C)C)c1)C(=O)N([C@@H](C)C(F)(F)F)C2 [Example 28]
Outgoing: 318

Incoming: Quick one: CNS(=O)(=O)c1cc(-c2sc(Nc3cccc(N4CC(=O)N5CCC[C@H]5C4=O)n3)nc2C)cc2c1C(=O)N([C@@H](C)C1CC1)C2 [Example 23]
Outgoing: 368
